Source listed as patent US6545049B1.

- Assay system: RXRγ (Mus musculus)
- Sequence (P28705 whole entry): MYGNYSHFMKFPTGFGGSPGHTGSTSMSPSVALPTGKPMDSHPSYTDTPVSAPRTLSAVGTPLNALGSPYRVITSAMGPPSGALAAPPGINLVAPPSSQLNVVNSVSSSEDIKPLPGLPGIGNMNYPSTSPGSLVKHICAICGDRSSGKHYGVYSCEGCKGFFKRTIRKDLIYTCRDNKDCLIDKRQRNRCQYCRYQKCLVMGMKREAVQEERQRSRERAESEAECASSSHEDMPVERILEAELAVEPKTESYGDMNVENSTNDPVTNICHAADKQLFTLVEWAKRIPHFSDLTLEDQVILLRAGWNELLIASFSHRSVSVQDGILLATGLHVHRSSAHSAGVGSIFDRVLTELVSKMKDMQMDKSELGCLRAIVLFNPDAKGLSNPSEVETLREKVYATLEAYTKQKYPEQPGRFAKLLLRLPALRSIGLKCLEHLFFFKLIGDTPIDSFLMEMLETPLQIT
- Protocol details: RXR binding, RXRγ
- Experimental parameters: -v- tritiated LGD1069 and tritiated 9-cis retinoic acid
- Description: Non-specific binding was defined as that binding remaining in the presence of 500 nM of the appropriate unlabelled compound. At the end of the incubation period, bound from free ligand were separated. The amount of bound tritiated retinoids was determined by liquid scintillation counting of an aliquot (700 μL) of the supernatant fluid or the hydroxylapatite pellet. After correcting for non-specific binding, IC50 values were determined. […]
pKd: −log10 of the molar value.
Rule: label 1 for pKd not less than 7, label 0 for anything less.

Hi, just wondering whether CCCOc1cc2c(cc1C(C)C/C=C/C(C)=C/C(=O)O)C(C)(C)CCC2(C)C (centres unmarked) shows pKd of 7 or higher.
label 1

Check this molecule for pKd at or above 7: CC(C=CC=C(C)c1cc2c(cc1OCc1ccccc1)C(C)(C)CCC2(C)C)=CC(=O)O
label 1

Would you say CCCc1cc2c(cc1C1(c3ccc(C(=O)O)cc3)CC1)C(C)(C)CCC2(C)C shows pKd at minimum 7?
label 0

Is pKd at least 7? Consider CCCCCCCOc1cc2c(cc1\C(C)=C/C=C/C(C)=C/C(=O)O)C(C)(C)CCC2(C)C
label 1

Does CCCCCCOc1cc2c(cc1/C(C)=C/C=C/C(C)=C/C(=O)O)C(C)(C)CCC2(C)C have a reported pKd of at least 7?
label 0

###

- Assay system: RXRα (Homo sapiens)
- Sequence (P19793 whole entry): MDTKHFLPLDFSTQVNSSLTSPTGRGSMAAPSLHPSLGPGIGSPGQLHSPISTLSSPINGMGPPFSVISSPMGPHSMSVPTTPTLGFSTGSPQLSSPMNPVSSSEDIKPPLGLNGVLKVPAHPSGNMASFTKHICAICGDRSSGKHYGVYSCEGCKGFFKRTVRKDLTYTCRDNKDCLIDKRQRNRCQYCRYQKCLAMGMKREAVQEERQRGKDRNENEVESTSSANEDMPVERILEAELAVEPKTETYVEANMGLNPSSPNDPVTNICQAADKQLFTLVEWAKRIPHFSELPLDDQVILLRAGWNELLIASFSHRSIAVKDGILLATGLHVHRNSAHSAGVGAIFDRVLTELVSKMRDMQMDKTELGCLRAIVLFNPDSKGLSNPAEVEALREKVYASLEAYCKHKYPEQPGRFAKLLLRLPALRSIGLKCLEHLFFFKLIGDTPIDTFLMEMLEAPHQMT
- Protocol details: RXR binding, RXRα
- Experimental parameters: -v- tritiated LGD1069 and tritiated 9-cis retinoic acid
Attribute measured: log10 Kd (log10 of the value in nM)
Could you please treat all values as log10 of Kd in nM?

Examples with answers:
[
  {
    "Compound": "CCCCCCOc1cc2c(cc1/C(C)=C/C=C/C(C)=C/C(=O)O)C(C)(C)CCC2(C)C [Compound 125]",
    "Attribute measured": "log10 Kd",
    "Readout number": 1.75
  },
  {
    "Compound": "CC1(C)CCC(C)(C)c2cc3c(cc21)CCCN3Cc1ccc(C(=O)O)cc1 [Compound 135]",
    "Attribute measured": "log10 Kd",
    "Readout number": 2.21
  },
  {
    "Compound": "CCCCCCCOc1c(C(C)C)cc(C(C)C)cc1C(C)C/C=C/C(C)=C\\C(=O)O (stereo not shown) [Compound 149]",
    "Attribute measured": "log10 Kd",
    "Readout number": 1.20
  }
]

Please give log10 Kd, item by item, for the list that follows.
1. CC(C=CC=C(C)c1cc2c(cc1OCC(C)C)C(C)(C)CCC2(C)C)=CC(=O)O [Compound 169]
2. CCCOc1cc2c(cc1C1CC1C/C=C/C(C)=C/C(=O)O)C(C)(C)CCC2(C)C (stereo not shown) [Compound 152]
3. CCCOc1cc2c(cc1C(C)C/C=C/C(C)=C/C(=O)O)C(C)(C)CCC2(C)C (stereo not shown) [Compound 175]
4. CCCCCCCOc1c(C(C)C)cc(C(C)C)cc1C(C)C/C=C/C(C)=C/C(=O)O (stereo not shown) [Compound 148]
5. CCCCCOc1cc2c(cc1/C(C)=C/C=C/C(C)=C/C(=O)O)C(C)(C)CCC2(C)C [Compound 170]
6. CCCCCCCOc1c(\C(C)=C/C=C/C(C)=C/C(=O)O)cc(C(C)C)cc1C(C)C [Compound 147]

1: 0.70; 2: 0.90; 3: 1.04; 4: 1.72; 5: 1.04; 6: 0.48
